- systemUnderTest: KIF5B-RET G810A (Homo sapiens, UniProt P07949, G810A)
- Construct: KIF5B (fusion partner); the other entry of the earlier key: KIF5B (P33176, Kinesin-1 heavy chain)
- assayMethodText: Cell viability assay (CellTiter-Glo) in BaF3 cells expressing KIF5B-RET G810A
- assayContext: B/KR mutant cell line G810A; read-out: IC50 of RET mutants, G810A
Examples of molecules with documented pIC50 follow.
The value called pIC50 is obtained by taking minus log10 of the concentration in mol/L.

Fill in the recorded pIC50 for this molecule, with KIF5B-RET G810A (Homo sapiens, UniProt P07949, G810A) as test system: CN1CCN(Cc2ccc(NC(=O)c3cncc(C#Cc4cnc5[nH]ncc5c4)c3)cc2C(F)(F)F)CC1 8.81

As a next step, examine the molecule that follows.
What pIC50 appears in the records for this molecule with KIF5B-RET G810A (Homo sapiens, UniProt P07949, G810A)? CN1CCN(Cc2ccc(NC(=O)c3cncc(C#Cc4cnc(N)nc4)c3)cc2C(F)(F)F)CC1 8.41

* * *

Overview of recorded solubility for various molecules
- assayMethodText: Solubility at pH 6.8
- Format: physicochemical
State just the number; it will be interpreted in µM.

Quick one: solubility of CN1CCN(Cc2ccc(NC(=O)c3cncc(C#Cc4cnc(N)c5ncccc45)c3)cc2C(F)(F)F)CC1 [HSN608, reference compound] ? 0.07

Read the next record carefully.
Endpoint output: solubility of CN1CCN(Cc2ccc(NC(=O)c3cncc(C#Cc4cnc(N)nc4)c3)cc2C(F)(F)F)CC1 . Value? 117

* * *

- systemUnderTest: hERG (Homo sapiens)
- Sequence (Q12809 whole entry): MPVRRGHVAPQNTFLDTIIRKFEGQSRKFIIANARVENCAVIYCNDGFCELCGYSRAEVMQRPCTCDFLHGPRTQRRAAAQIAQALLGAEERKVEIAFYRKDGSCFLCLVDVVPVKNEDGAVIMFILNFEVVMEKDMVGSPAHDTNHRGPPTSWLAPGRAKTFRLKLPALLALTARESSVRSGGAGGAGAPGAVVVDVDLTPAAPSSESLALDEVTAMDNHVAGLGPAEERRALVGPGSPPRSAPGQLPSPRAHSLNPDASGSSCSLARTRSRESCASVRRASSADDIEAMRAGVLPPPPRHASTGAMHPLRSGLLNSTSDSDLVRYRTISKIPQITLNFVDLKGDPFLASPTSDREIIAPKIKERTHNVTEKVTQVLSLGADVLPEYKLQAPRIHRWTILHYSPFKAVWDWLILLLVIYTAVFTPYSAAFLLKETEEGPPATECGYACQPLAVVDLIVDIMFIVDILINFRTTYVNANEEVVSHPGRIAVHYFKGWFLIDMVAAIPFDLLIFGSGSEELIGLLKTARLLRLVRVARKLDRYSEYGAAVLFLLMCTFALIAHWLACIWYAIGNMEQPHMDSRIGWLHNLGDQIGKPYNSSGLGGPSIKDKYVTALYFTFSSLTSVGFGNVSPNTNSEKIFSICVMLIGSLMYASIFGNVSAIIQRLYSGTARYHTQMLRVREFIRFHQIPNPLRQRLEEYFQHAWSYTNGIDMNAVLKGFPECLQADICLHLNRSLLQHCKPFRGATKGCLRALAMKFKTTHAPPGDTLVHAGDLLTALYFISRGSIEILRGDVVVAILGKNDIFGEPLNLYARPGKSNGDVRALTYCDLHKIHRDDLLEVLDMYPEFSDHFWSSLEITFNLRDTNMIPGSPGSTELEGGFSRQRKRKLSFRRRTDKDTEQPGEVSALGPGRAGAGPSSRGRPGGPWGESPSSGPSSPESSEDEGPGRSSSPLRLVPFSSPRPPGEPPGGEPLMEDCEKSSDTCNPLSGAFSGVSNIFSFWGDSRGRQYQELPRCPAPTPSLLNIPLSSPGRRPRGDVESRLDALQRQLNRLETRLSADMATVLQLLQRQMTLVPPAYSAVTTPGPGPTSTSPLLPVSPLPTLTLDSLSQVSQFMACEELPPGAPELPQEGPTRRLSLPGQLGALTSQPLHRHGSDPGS
- assayMethodText: hERG inhibition
- Format: biochemical
property: IC50 (µM)
Numeric answer only, unit µM assumed.

Can you look up the measured IC50 of CN1CCN(Cc2ccc(NC(=O)c3cncc(C#Cc4cnc(N)nc4)c3)cc2C(F)(F)F)CC1 for me? 23

* * *

- systemUnderTest: KIF5B-RET G810C (Homo sapiens, UniProt P07949, G810C)
- Construct: KIF5B (fusion partner); the other entry of the earlier key: KIF5B (P33176, Kinesin-1 heavy chain)
- assayMethodText: Cell viability assay (CellTiter-Glo) in BaF3 cells expressing KIF5B-RET G810C
- assayContext: B/KR mutant cell line G810C; read-out: IC50 of RET mutants, G810C
property: pIC50
pIC50 is defined as minus the log10 of a concentration measured in mol/L.

Any idea what pIC50 was measured for CN1CCN(Cc2ccc(NC(=O)c3cncc(C#Cc4cnc5[nH]ncc5c4)c3)cc2C(F)(F)F)CC1 [Example 1] ? 7.94

The record that follows has no pIC50 shown yet.
Value lookup for pIC50; key = CN1CCN(Cc2ccc(NC(=O)c3cncc(C#Cc4cnc(N)nc4)c3)cc2C(F)(F)F)CC1 [Example 2] 7.91

* * *

- systemUnderTest: KIF5B-RET G810D (Homo sapiens, UniProt P07949, G810D)
- Construct: KIF5B (fusion partner); the other entry of the earlier key: KIF5B (P33176, Kinesin-1 heavy chain)
- Sequence (P07949 713-1063 G810D limits assumed): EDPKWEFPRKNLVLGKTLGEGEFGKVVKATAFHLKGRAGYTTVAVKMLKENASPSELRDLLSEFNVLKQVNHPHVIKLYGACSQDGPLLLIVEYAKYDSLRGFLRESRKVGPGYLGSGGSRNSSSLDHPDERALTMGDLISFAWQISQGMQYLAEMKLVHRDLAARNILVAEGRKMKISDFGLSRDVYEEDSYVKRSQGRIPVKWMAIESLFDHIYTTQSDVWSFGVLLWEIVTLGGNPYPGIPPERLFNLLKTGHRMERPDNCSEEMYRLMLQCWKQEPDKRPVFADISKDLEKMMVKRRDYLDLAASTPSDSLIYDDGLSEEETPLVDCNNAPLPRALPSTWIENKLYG
- assayMethodText: Cell viability assay (CellTiter-Glo) in BaF3 cells expressing KIF5B-RET G810D
- assayContext: B/KR mutant cell line G810D; read-out: IC50 of RET mutants, G810D
# IC50 annotations
Respond with the bare value in nM.

Bench note: what IC50 did CN1CCN(Cc2ccc(NC(=O)c3cncc(C#Cc4cnc5[nH]ncc5c4)c3)cc2C(F)(F)F)CC1 show? 5.21

Read the next record carefully.
Record request: IC50 value, item CN1CCN(Cc2ccc(NC(=O)c3cncc(C#Cc4cnc(N)nc4)c3)cc2C(F)(F)F)CC1 1.47
